Measured cell viability accompanies every entry in the list below.
# Test system: Calu-3
# ASSAY OVERVIEW: cell viability relative to DMSO; higher = less toxic
# EXPERIMENTAL SETUP: 72 h; 10 nM
Lab book: enter the figure in %, no units written.

The following compounds have reported results that may help.
[
  {
    "COMPOUND": "Cc1cc(C)c(S(=O)(=O)n2cc(C)cc2C)c(C)c1",
    "ASSAYED SYSTEM": "Calu-3",
    "QUANTITATIVE RESULT": 99.4
  },
  {
    "COMPOUND": "Cn1cc(-c2ccncc2)c(-c2ccc(OCc3ccc4ccccc4n3)cc2)n1",
    "ASSAYED SYSTEM": "Calu-3",
    "QUANTITATIVE RESULT": 105
  },
  {
    "COMPOUND": "O=C(O)CC[C@H]1CC[C@@](c2cc(F)ccc2F)(S(=O)(=O)c2ccc(Cl)cc2)CC1",
    "ASSAYED SYSTEM": "Calu-3",
    "QUANTITATIVE RESULT": 96.3
  },
  {
    "COMPOUND": "Cc1c2oc3c(C)ccc(C(=O)N[C@@H]4C(=O)N[C@@H](C(C)C)C(=O)N5CCC[C@H]5C(=O)N(C)CC(=O)N(C)[C@@H](C(C)C)C(=O)O[C@@H]4C)c3nc-2c(C(=O)N[C@@H]2C(=O)N[C@@H](C(C)C)C(=O)N3CCC[C@H]3C(=O)N(C)CC(=O)N(C)[C@@H](C(C)C)C(=O)O[C@@H]2C)c(N)c1=O",
    "ASSAYED SYSTEM": "Calu-3",
    "QUANTITATIVE RESULT": 71.4
  },
  {
    "COMPOUND": "C[C@@H]1CN(c2c(F)c(N)c3c(=O)c(C(=O)O)cn(C4CC4)c3c2F)C[C@H](C)N1",
    "ASSAYED SYSTEM": "Calu-3",
    "QUANTITATIVE RESULT": 93
  },
  {
    "COMPOUND": "CNC(=O)c1ccc(N2C(=S)N(c3cnc(C#N)c(C(F)(F)F)c3)C(=O)C23CCC3)cc1F [apalutamide]",
    "ASSAYED SYSTEM": "Calu-3",
    "QUANTITATIVE RESULT": 103
  },
  {
    "COMPOUND": "COc1cc2c(CCNC(C)=O)c[nH]c2cc1Cl",
    "ASSAYED SYSTEM": "Calu-3",
    "QUANTITATIVE RESULT": 96.5
  },
  {
    "COMPOUND": "Cc1oc(-c2ccccc2)nc1CCC(=O)c1ccc(CC2SC(=O)NC2=O)cc1 (stereo unspecified)",
    "ASSAYED SYSTEM": "Calu-3",
    "QUANTITATIVE RESULT": 110
  },
  {
    "COMPOUND": "CCN1C[C@]2(OC(=O)c3ccccc3NC(C)=O)CC[C@H](OC)[C@@]34[C@@H]2C[C@@H]([C@@H]13)[C@@]1(O)C[C@H](OC)[C@H]2C[C@@H]4[C@]1(O)[C@H]2OC",
    "ASSAYED SYSTEM": "Calu-3",
    "QUANTITATIVE RESULT": 86.1
  },
  {
    "COMPOUND": "O=c1cc[nH]c(=S)[nH]1",
    "ASSAYED SYSTEM": "Calu-3",
    "QUANTITATIVE RESULT": 110
  }
]

Kindly review the next compound as well.
Reported cell viability for `NNC(=O)CN1C(=O)CN=C(c2ccccc2)c2cc(Br)ccc21` : what is it? 99
